Attribute: retention time
system.under.test: UniProt P56817
protocol.summary: Activity of recombinant BACE assessed as retention time of substrate by HPLC method
Non-standard residues stand in square brackets, D forms with d. Residues, ends and D or L forms follow the SMILES beside them. Tle = CC(C)(C)[C@H](N)C(=O)O; Nva = CCC[C@H](N)C(=O)O
Report the value in h with no unit label.

Study these solved cases before continuing.
• CC[C@H](C)[C@H](N)C(=O)N[C@@H](CO)C(=O)N[C@@H](CCC(=O)O)C(=O)N[C@H](C(=O)N[C@H](C(=O)N[C@@H](CC(C)C)C(=O)N[C@@H](CC(=O)O)C(=O)N[C@@H](C)C(=O)N[C@@H](CCC(=O)O)C(=O)N[C@@H](Cc1ccccc1)C(=O)N[C@@H](CCCNC(=N)N)C(=O)N[C@@H](Cc1cnc[nH]1)C(N)=O)C(C)(C)C)C(C)C (H-ISEV[Tle]LDAEFRH-NH2) = 0.531
• CC[C@H](C)[C@H](N)C(=O)N[C@@H](CO)C(=O)N[C@@H](CC(=O)O)C(=O)N[C@H](C(=O)N[C@@H](CC(N)=O)C(=O)N[C@@H](CC(C)C)C(=O)N[C@@H](CC(=O)O)C(=O)N[C@@H](C)C(=O)N[C@@H](CCC(=O)O)C(=O)N[C@@H](Cc1ccccc1)C(=O)N[C@@H](CCCNC(=N)N)C(=O)N[C@@H](Cc1cnc[nH]1)C(N)=O)C(C)C (H-ISDVNLDAEFRH-NH2) = 0.474

Consider now this further compound.
Query: Please give the measured retention time for this compound: CCC[C@H](N)C(=O)N[C@@H](C)C(=O)N[C@@H](CCC(=O)O)C(=O)N[C@@H](Cc1ccccc1)C(=O)N[C@@H](CCCNC(=N)N)C(=O)N[C@@H](Cc1cnc[nH]1)C(N)=O (H-[Nva]AEFRH-NH2)
Reply: 0.269

----------
Attribute: retention time
system.under.test: Beta-secretase 1 (Homo sapiens)
protocol.summary: Activity of recombinant BACE assessed as retention time of substrate by HPLC method
Non-standard residues stand in square brackets, D forms with d. Residues, ends and D or L forms follow the SMILES beside them. 2Thi = N[C@@H](Cc1cccs1)C(=O)O; Cit = NC(=O)NCCC[C@H](N)C(=O)O; Tle = CC(C)(C)[C@H](N)C(=O)O; Nva = CCC[C@H](N)C(=O)O; Abu = CC[C@H](N)C(=O)O
Report the value in h with no unit label.

Study these solved cases before continuing.
* CC[C@H](NC(=O)[C@H](CCC(=O)O)NC(=O)[C@H](CO)NC(=O)[C@@H](N)[C@@H](C)CC)C(=O)N[C@@H](CC(N)=O)C(=O)N[C@@H](CC(C)C)C(=O)N[C@@H](CC(=O)O)C(=O)N[C@@H](C)C(=O)N[C@@H](CCC(=O)O)C(=O)N[C@@H](Cc1ccccc1)C(=O)N[C@@H](CCCNC(=N)N)C(=O)N[C@@H](Cc1cnc[nH]1)C(N)=O (H-ISE[Abu]NLDAEFRH-NH2) | 0.47
* CC[C@H](C)[C@H](N)C(=O)N[C@@H](CO)C(=O)N[C@@H](CCC(=O)O)C(=O)N[C@H](C(=O)N[C@@H](CC(N)=O)C(=O)N[C@@H](CC(C)C)C(=O)N[C@@H](Cc1cccs1)C(=O)N[C@@H](C)C(=O)N[C@@H](CCC(=O)O)C(=O)N[C@@H](Cc1ccccc1)C(=O)N[C@@H](CCCNC(=N)N)C(=O)N[C@@H](Cc1cnc[nH]1)C(N)=O)C(C)C (H-ISEVNL[2Thi]AEFRH-NH2) | 0.656
* CC[C@H](C)[C@H](N)C(=O)N[C@@H](CO)C(=O)N[C@@H](CCC(=O)O)C(=O)N[C@H](C(=O)N[C@@H](CC(N)=O)C(=O)N[C@@H](CC(C)C)C(=O)N[C@@H](CC(=O)O)C(=O)N[C@@H](C)C(=O)N[C@@H](CCC(=O)O)C(=O)N[C@@H](Cc1ccccc1)C(=O)N[C@@H](CCCNC(=N)N)C(=O)N[C@@H](Cc1cnc[nH]1)C(N)=O)C(C)(C)C (H-ISE[Tle]NLDAEFRH-NH2) | 0.517
* CCC[C@H](NC(=O)[C@H](CC(C)C)NC(=O)[C@H](CC(N)=O)NC(=O)[C@@H](NC(=O)[C@H](CCC(=O)O)NC(=O)[C@H](CO)NC(=O)[C@@H](N)[C@@H](C)CC)C(C)C)C(=O)N[C@@H](C)C(=O)N[C@@H](CCC(=O)O)C(=O)N[C@@H](Cc1ccccc1)C(=O)N[C@@H](CCCNC(=N)N)C(=O)N[C@@H](Cc1cnc[nH]1)C(N)=O (H-ISEVNL[Nva]AEFRH-NH2) | 0.622
* CCC[C@H](NC(=O)[C@@H](NC(=O)[C@H](CCC(=O)O)NC(=O)[C@H](CO)NC(=O)[C@@H](N)[C@@H](C)CC)C(C)C)C(=O)N[C@@H](CC(C)C)C(=O)N[C@@H](CC(=O)O)C(=O)N[C@@H](C)C(=O)N[C@@H](CCC(=O)O)C(=O)N[C@@H](Cc1ccccc1)C(=O)N[C@@H](CCCNC(=N)N)C(=O)N[C@@H](Cc1cnc[nH]1)C(N)=O (H-ISEV[Nva]LDAEFRH-NH2) | 0.521

Consider now this further compound.
Query: Please give the measured retention time for this compound: CC[C@H](C)[C@H](N)C(=O)N[C@@H](CO)C(=O)N[C@@H](CCCNC(N)=O)C(=O)N[C@H](C(=O)N[C@@H](CC(N)=O)C(=O)N[C@@H](CC(C)C)C(=O)N[C@@H](CC(=O)O)C(=O)N[C@@H](C)C(=O)N[C@@H](CCC(=O)O)C(=O)N[C@@H](Cc1ccccc1)C(=O)N[C@@H](CCCNC(=N)N)C(=O)N[C@@H](Cc1cnc[nH]1)C(N)=O)C(C)C (H-IS[Cit]VNLDAEFRH-NH2)
Reply: 0.474

----------
system.under.test: Beta-secretase 1 (Homo sapiens) (UniProt P56817)
Sequence (P56817 whole entry): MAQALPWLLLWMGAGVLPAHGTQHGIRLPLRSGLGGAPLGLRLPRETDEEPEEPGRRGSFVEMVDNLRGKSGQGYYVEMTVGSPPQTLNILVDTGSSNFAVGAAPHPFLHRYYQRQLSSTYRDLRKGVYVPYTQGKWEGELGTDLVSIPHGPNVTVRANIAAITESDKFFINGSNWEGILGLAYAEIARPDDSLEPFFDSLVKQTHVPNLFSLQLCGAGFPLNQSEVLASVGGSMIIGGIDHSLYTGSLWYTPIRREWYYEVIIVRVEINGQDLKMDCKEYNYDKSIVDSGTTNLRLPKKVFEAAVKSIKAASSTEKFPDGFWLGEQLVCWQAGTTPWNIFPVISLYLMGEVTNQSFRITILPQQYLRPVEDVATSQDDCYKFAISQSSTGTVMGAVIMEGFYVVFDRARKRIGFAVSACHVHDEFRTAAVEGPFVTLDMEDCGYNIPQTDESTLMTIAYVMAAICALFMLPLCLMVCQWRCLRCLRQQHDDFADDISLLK
protocol.summary: Activity of recombinant BACE assessed as retention time of substrate by HPLC method
Starred links: 1 amine or outer side, 2 acyl side, 3 side chain; linkers in the order of their positions; H or OH if unused. Non-standard residues stand in square brackets, D forms with d. Residues, ends and D or L forms follow the SMILES beside them. X1 = O=C(O)[C@@H]1Cc2ccccc2CN1[C@H](N[*:1])C(=O)[*:2]; Tle = CC(C)(C)[C@H](N)C(=O)O; Abu = CC[C@H](N)C(=O)O
Attribute: retention time
Report the value in h with no unit label.

* CC[C@H](NC(=O)[C@H](CC(N)=O)NC(=O)[C@@H](NC(=O)[C@H](CCC(=O)O)NC(=O)[C@H](CO)NC(=O)[C@@H](N)[C@@H](C)CC)C(C)C)C(=O)N[C@@H](CC(=O)O)C(=O)N[C@@H](C)C(=O)N[C@@H](CCC(=O)O)C(=O)N[C@@H](Cc1ccccc1)C(=O)N[C@@H](CCCNC(=N)N)C(=O)N[C@@H](Cc1cnc[nH]1)C(N)=O (H-ISEVN[Abu]DAEFRH-NH2) | 0.409
* CC[C@H](C)[C@H](N)C(=O)N[C@@H](CO)C(=O)N[C@@H](CCC(=O)O)C(=O)N[C@H](C(=O)N[C@@H](CC(N)=O)C(=O)N[C@@H](CC(C)C)C(=O)N[C@@H](CC(=O)O)C(=O)N[C@@H](C)C(=O)N[C@@H](CCC(=O)O)C(=O)N[C@@H](Cc1ccccc1)C(=O)N[C@@H](CCCNC(=N)N)C(=O)N[C@@H](Cc1cnc[nH]1)C(N)=O)N1Cc2ccccc2C[C@H]1C(=O)O (H-ISE[X1]NLDAEFRH-NH2) | 0.599

Consider now this further molecule.
Query: Please give the measured retention time for this molecule: CC[C@H](C)[C@H](N)C(=O)N[C@@H](CO)C(=O)N[C@@H](CCC(=O)O)C(=O)N[C@H](C(=O)N[C@@H](CC(N)=O)C(=O)N[C@H](C(=O)N[C@@H](CC(=O)O)C(=O)N[C@@H](C)C(=O)N[C@@H](CCC(=O)O)C(=O)N[C@@H](Cc1ccccc1)C(=O)N[C@@H](CCCNC(=N)N)C(=O)N[C@@H](Cc1cnc[nH]1)C(N)=O)C(C)(C)C)C(C)C (H-ISEVN[Tle]DAEFRH-NH2)
Reply: 0.479

----------
Attribute: retention time
system.under.test: Beta-secretase 1 (Homo sapiens) (UniProt P56817)
protocol.summary: Activity of recombinant BACE assessed as retention time of substrate by HPLC method
Non-standard residues stand in square brackets, D forms with d. Residues, ends and D or L forms follow the SMILES beside them. 2Thi = N[C@@H](Cc1cccs1)C(=O)O; Cha = N[C@@H](CC1CCCCC1)C(=O)O; Cit = NC(=O)NCCC[C@H](N)C(=O)O; Phg = N[C@H](C(=O)O)c1ccccc1
Report the value in h with no unit label.

• CC[C@H](C)[C@H](N)C(=O)N[C@@H](CO)C(=O)N[C@@H](CCC(=O)O)C(=O)N[C@H](C(=O)N[C@H](C(=O)N[C@@H](CC(C)C)C(=O)N[C@@H](CC(=O)O)C(=O)N[C@@H](C)C(=O)N[C@@H](CCC(=O)O)C(=O)N[C@@H](Cc1ccccc1)C(=O)N[C@@H](CCCNC(=N)N)C(=O)N[C@@H](Cc1cnc[nH]1)C(N)=O)c1ccccc1)C(C)C (H-ISEV[Phg]LDAEFRH-NH2) = 0.541

Query: Please give the measured retention time for this compound: CC[C@H](C)[C@H](N)C(=O)N[C@@H](CO)C(=O)N[C@@H](CCC(=O)O)C(=O)N[C@H](C(=O)N[C@@H](CC(N)=O)C(=O)N[C@@H](CCCNC(N)=O)C(=O)N[C@@H](CC(=O)O)C(=O)N[C@@H](C)C(=O)N[C@@H](CCC(=O)O)C(=O)N[C@@H](Cc1ccccc1)C(=O)N[C@@H](CCCNC(=N)N)C(=O)N[C@@H](Cc1cnc[nH]1)C(N)=O)C(C)C (H-ISEVN[Cit]DAEFRH-NH2)
Reply: 0.344

Query: Please give the measured retention time for this compound: CC[C@H](C)[C@H](N)C(=O)N[C@@H](CO)C(=O)N[C@@H](CCC(=O)O)C(=O)N[C@@H](Cc1cccs1)C(=O)N[C@@H](CC(N)=O)C(=O)N[C@@H](CC(C)C)C(=O)N[C@@H](CC(=O)O)C(=O)N[C@@H](C)C(=O)N[C@@H](CCC(=O)O)C(=O)N[C@@H](Cc1ccccc1)C(=O)N[C@@H](CCCNC(=N)N)C(=O)N[C@@H](Cc1cnc[nH]1)C(N)=O (H-ISE[2Thi]NLDAEFRH-NH2)
Reply: 0.533

Query: Please give the measured retention time for this compound: CC[C@H](C)[C@H](N)C(=O)N[C@@H](CO)C(=O)N[C@@H](CCC(=O)O)C(=O)N[C@H](C(=O)N[C@@H](Cc1cccs1)C(=O)N[C@@H](CC(C)C)C(=O)N[C@@H](CC(=O)O)C(=O)N[C@@H](C)C(=O)N[C@@H](CCC(=O)O)C(=O)N[C@@H](Cc1ccccc1)C(=O)N[C@@H](CCCNC(=N)N)C(=O)N[C@@H](Cc1cnc[nH]1)C(N)=O)C(C)C (H-ISEV[2Thi]LDAEFRH-NH2)
Reply: 0.551

Query: Please give the measured retention time for this compound: CC[C@H](C)[C@H](N)C(=O)N[C@@H](CO)C(=O)N[C@@H](CCC(=O)O)C(=O)N[C@H](C(=O)N[C@@H](CC1CCCCC1)C(=O)N[C@@H](CC(C)C)C(=O)N[C@@H](CC(=O)O)C(=O)N[C@@H](C)C(=O)N[C@@H](CCC(=O)O)C(=O)N[C@@H](Cc1ccccc1)C(=O)N[C@@H](CCCNC(=N)N)C(=O)N[C@@H](Cc1cnc[nH]1)C(N)=O)C(C)C (H-ISEV[Cha]LDAEFRH-NH2)
Reply: 0.616
